Measured on: TYK2-JH2 (aa 575-869, in-house) protein (Homo sapiens, UniProt P29597)
Construct: TYK2-JH2 (aa 575-869, in-house) protein; made in house
Sequence (P29597 575-869): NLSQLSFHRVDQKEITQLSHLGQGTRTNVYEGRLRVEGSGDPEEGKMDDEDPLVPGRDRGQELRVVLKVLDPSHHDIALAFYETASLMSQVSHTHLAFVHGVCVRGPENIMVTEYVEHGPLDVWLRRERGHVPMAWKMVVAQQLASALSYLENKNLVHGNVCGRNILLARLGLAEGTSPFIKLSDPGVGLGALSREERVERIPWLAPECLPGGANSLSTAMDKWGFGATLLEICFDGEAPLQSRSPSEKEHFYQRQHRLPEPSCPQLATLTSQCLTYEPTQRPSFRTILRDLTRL
Protocol description: TYK2-JH2 biochemical assay (HTRF, blocking of TYK2-JH2 protein with its probe)
Format: binding
Particulars: TYK2-JH2 vs JAK1-JH2 biochemical IC50
Readout type: Biochemical assay Selectivity fold (TYK2/JAK1) (fold)
The response must be a number in fold with no trailing unit.

Reference set (3 entries):
>>> print(df.to_string())
                            compound_string  readout_value
0  CNC(=O)c1nnc(NC(=O)C2CC2)cc1Nc1nc2ccc(N3CC(O)C3)cn2n1             21
1  CNC(=O)c1nnc(NC(=O)C2CC2)cc1Nc1nc2ccc(N3CC(F)C3)cn2n1             25
2  CNC(=O)c1nnc(NC(=O)C2CC2)cc1Nc1nc2ccc(N3CC(c4ncn(C)n4)C3)cn2n1              9

Kindly consider the entry below.
Exercise: Tell me the measured Biochemical assay Selectivity fold (TYK2/JAK1) of CNC(=O)c1nnc(NC(=O)C2CC2)cc1Nc1nc2ccc(C3CN(C(=O)c4cccnc4)C3)cn2n1 , please.
Solution: 21

Data origin, for the record: patent US12606556B2
